- assay.text: PK study in rats, single oral administration
- Format: in vivo, rat
- experimental.conditions: rat, single oral administration, plasma, Table 2
- Protocol: Pharmacokinetics of compounds in rats were analyzed using the following experiment. Rats were fasted overnight prior to administration and until approximately 4 hours after administration. Rats were given a single oral administration of compound at same dose. Administration volume was 10 ml/kg. Blood samples were collected from the retro-orbital sinus at various times over the following 7 hrs. […] The plasma samples were analyzed using a reverse phase high-performance chromatography (HPLC) method.
Please go through the items and note down their Cmax.
Answers are plain numbers, in ng/mL.

Field: example entries. Status: answers known.
[[record]]
smiles_str = "CCCNc1cc(C(F)(F)F)ccc1/C=C/C(=O)NCc1cc(F)c(NS(C)(=O)=O)c(F)c1"
u = "ng/mL"
measured_value = 1420

[[record]]
smiles_str = "CCCOc1cc(C(F)(F)F)ccc1/C=C/C(=O)N[C@H](C)c1cc(F)c(NS(C)(=O)=O)c(F)c1"
u = "ng/mL"
measured_value = 2630

[[record]]
smiles_str = "CCCNc1cc(C(F)(F)F)ccc1/C=C/C(=O)N[C@H](C)c1cc(F)c(NS(C)(=O)=O)c(F)c1"
u = "ng/mL"
measured_value = 466


Consider now this further compound.
Which Cmax value belongs to CCCc1cc(C(F)(F)F)ccc1/C=C/C(=O)N[C@H](C)c1cc(F)c(NS(C)(=O)=O)c(F)c1 ?
2720
